- tested on: Kappa-type opioid receptor (Homo sapiens, UniProt P41145)
- Sequence (P41145 whole entry): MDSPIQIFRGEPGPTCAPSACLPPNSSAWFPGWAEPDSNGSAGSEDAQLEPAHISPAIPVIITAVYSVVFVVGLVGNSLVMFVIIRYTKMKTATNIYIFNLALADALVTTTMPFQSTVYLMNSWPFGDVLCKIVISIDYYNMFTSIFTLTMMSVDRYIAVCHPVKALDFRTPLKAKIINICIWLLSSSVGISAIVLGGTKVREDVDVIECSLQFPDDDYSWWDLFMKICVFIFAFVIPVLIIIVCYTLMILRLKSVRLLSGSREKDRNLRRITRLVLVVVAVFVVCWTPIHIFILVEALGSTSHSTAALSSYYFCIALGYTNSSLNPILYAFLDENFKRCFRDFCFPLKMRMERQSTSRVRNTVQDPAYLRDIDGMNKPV
Record form. Attribute: Ki. Fill in for each entry.
Quick note: number first, unit second.

List the reported Ki of each molecule below.
1. COC(=O)[C@@H]1C[C@H](OS(=O)(=O)c2ccccc2)C(=O)[C@H]2[C@@]1(C)CCC1C(=O)O[C@H](c3ccoc3)C[C@@]12C (single isomer, unassigned)
2. COC(=O)[C@@H]1C[C@H](OC(=O)c2cccc(Br)c2)C(=O)[C@H]2[C@@]1(C)CCC1C(=O)O[C@H](c3ccoc3)C[C@@]12C (single isomer, unassigned)
3. CCCCCC(=O)O[C@H]1C[C@@H](C(=O)OC)[C@]2(C)CCC3C(=O)O[C@H](c4ccoc4)C[C@]3(C)[C@H]2C1=O (single isomer, unassigned)
4. COC(=O)[C@@H]1C[C@H](OC(=O)c2ccc(Br)cc2)C(=O)[C@H]2[C@@]1(C)CCC1C(=O)O[C@H](c3ccoc3)C[C@@]12C (single isomer, unassigned)
5. COC(=O)[C@@H]1C[C@H](OC(=O)CNC(=O)OC(C)(C)C)C(=O)[C@H]2[C@@]1(C)CCC1C(=O)O[C@H](c3ccoc3)C[C@@]12C (single isomer, unassigned)
6. CCCC(=O)O[C@H]1C[C@@H](C(=O)OC)[C@]2(C)CCC3C(=O)O[C@H](c4ccoc4)C[C@]3(C)[C@H]2C1=O (single isomer, unassigned)
7. COC(=O)[C@@H]1C[C@H](OC(=O)CCc2ccccc2)C(=O)[C@H]2[C@@]1(C)CC[C@H]1C(=O)O[C@H](c3ccoc3)C[C@]21C
8. COC(=O)[C@@H]1C[C@H](OS(=O)(=O)c2ccc(C)cc2)C(=O)[C@H]2[C@@]1(C)CCC1C(=O)O[C@H](c3ccoc3)C[C@@]12C (single isomer, unassigned)

[A]
1: 0.06 µM; 2: 0.07 µM; 3: 0.07 µM; 4: 0.74 µM; 5: 0.09 µM; 6: 0.004 µM; 7: 0.18 µM; 8: 0.05 µM
